// provenance: patent US20020026053A1

System: FLK-1 receptor
Assay: FLK-1 Assay (cellular/catalytic ELISA, VEGF-stimulated phosphotyrosine)
Type: cell-based
Set-up: concentration or dose not given beside the values
Label y when Flk Kinase % Inhibition (P.110) >= 20%; otherwise n.

ITEM_SMILES | CLASS_ASSIGNMENT
Cc1c(Br)cc(Br)c2c1C(=Cc1ccc(O)c(O)c1)C(=O)N2 | n
O=C1Nc2ccc(CCCl)cc2C1=Cc1cc(Br)cc(Br)c1O | y
O=C1Nc2ccc(S(=O)(=O)N3CCOCC3)cc2C1=Cc1cc(Cl)ccc1O | n
O=C1Nc2ccc(I)cc2C1=Cc1cccc2ccccc12 | n
Cc1c(O)ccc(C=C2C(=O)Nc3c(Br)cc(Br)c(C)c32)c1O | n
